Please find below pIC50 data on Tyrosine-protein phosphatase non-receptor type 11 (Homo sapiens, UniProt Q06124) compiled from the literature.
# studySystem: Tyrosine-protein phosphatase non-receptor type 11 (Homo sapiens, UniProt Q06124)
# Sequence (Q06124 whole entry): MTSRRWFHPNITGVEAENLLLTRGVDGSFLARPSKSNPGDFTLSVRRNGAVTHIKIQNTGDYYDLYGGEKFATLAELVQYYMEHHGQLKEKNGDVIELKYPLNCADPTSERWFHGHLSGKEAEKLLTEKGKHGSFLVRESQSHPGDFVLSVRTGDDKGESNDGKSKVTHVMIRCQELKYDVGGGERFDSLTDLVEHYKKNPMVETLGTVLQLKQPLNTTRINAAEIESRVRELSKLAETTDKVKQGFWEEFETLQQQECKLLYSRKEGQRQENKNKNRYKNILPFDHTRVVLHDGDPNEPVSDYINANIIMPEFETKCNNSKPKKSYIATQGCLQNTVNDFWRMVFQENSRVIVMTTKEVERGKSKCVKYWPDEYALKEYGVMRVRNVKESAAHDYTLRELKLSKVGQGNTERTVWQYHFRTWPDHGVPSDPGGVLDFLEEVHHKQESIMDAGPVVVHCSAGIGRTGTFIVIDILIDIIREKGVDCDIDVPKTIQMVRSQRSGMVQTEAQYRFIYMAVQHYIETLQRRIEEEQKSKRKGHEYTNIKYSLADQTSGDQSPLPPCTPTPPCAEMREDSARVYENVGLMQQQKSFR
Conceptually, pIC50 converts a concentration in mol/L into minus its log10.

Previously resolved entries follow.
compound	studySystem	pIC50
Cn1c(-c2ccccc2)c(-c2cn(CC(=O)NC3c4ccccc4-c4ccccc43)nn2)c2cc(C(=O)O)c(O)cc21	Tyrosine-protein phosphatase non-receptor type 11 (Homo sapiens, UniProt Q06124)	4.98
C#Cc1cc2nsnc2cc1N	Tyrosine-protein phosphatase non-receptor type 11 (Homo sapiens, UniProt Q06124)	5.68
O=C(O)c1cc2c(C#Cc3ccccc3)c(-c3ccccc3)oc2cc1O	Tyrosine-protein phosphatase non-receptor type 11 (Homo sapiens, UniProt Q06124)	5.40
CCOS(=O)(=O)/C=C/c1ccc(O[C@H]2CNC[C@H]2Oc2ccc(/C=C/S(=O)(=O)OCC)cc2)cc1	Tyrosine-protein phosphatase non-receptor type 11 (Homo sapiens, UniProt Q06124)	4.26
Oc1ccc(-c2ccc(-c3nnn[nH]3)cc2Cl)cc1C12CC3CC(CC(C3)C1)C2	Tyrosine-protein phosphatase non-receptor type 11 (Homo sapiens, UniProt Q06124)	5.89

Alright, here's another compound for you.
Ask: Could you tell me which pIC50 is on file for CCOP(=O)(O)C(N[C@@H](Cc1cnc[nH]1)C(=O)O)c1ccccc1O (some centres undefined) ?
Reply: 3.68
